- Test system: Rattus norvegicus
- TEST SUMMARY: Anticonvulsant activity in Sprague-Dawley albino rat assessed as protection against maximal electroshock-induced seizures at 30 mg/kg, po after 0.5 hrs
- Assay type: functional, organism-based
- Set-up: dose 30 mg/kg
Calls of active or inactive are those of the source. The calls are words filed in the database; no cut-off is given here.
Classes used: active, inactive

{"COMPOUND": "O=C1NC(c2ccccc2)(C2CC2)C(=O)N1CN1CCN(CCc2ccccc2)CC1 (stereo unspecified)", "CAT": "inactive"}
{"COMPOUND": "O=C1NC(=O)C(c2ccccc2)(c2ccccc2)N1", "CAT": "active"}
{"COMPOUND": "O=C1NC(=O)C(c2ccccc2)(C2CC2)N1 (stereo unspecified)", "CAT": "active"}
{"COMPOUND": "O=C(c1ccccc1)N1CCN(CN2C(=O)NC(c3ccccc3)(C3CC3)C2=O)CC1 (stereo unspecified)", "CAT": "inactive"}
{"COMPOUND": "O=C1NC(c2ccccc2)(C2CC2)C(=O)N1CN1CCc2ccccc2C1 (stereo unspecified)", "CAT": "inactive"}
{"COMPOUND": "O=C(OCc1ccccc1)N1CCN(CN2C(=O)NC(c3ccccc3)(C3CC3)C2=O)CC1 (stereo unspecified)", "CAT": "inactive"}

----------
- System: Rattus norvegicus
- TEST SUMMARY: Neurotoxicity in Sprague-Dawley albino rat assessed as motor impairment at 30 mg/kg, po after 1 hrs by rotarod test
- Format: toxicity, organism-based
- Parameters: dose 30 mg/kg, route oral
- ASSAY CONTEXT: in vivo
OBSERVED PROPERTY: Activity

{"MOLECULE": "O=C(c1ccccc1)N1CCN(CN2C(=O)NC(c3ccccc3)(C3CC3)C2=O)CC1 (stereo not drawn)", "TEST TARGET": "Rattus norvegicus", "OBSERVED PROPERTY": "Activity", "RESULT": "Non-toxic"}
{"MOLECULE": "CC(c1ccccc1)N1CCN(CN2C(=O)NC(c3ccccc3)(C3CC3)C2=O)CC1 (stereo not drawn)", "TEST TARGET": "Rattus norvegicus", "OBSERVED PROPERTY": "Activity", "RESULT": "Non-toxic"}
{"MOLECULE": "O=C(OCc1ccccc1)N1CCN(CN2C(=O)NC(c3ccccc3)(C3CC3)C2=O)CC1 (stereo not drawn)", "TEST TARGET": "Rattus norvegicus", "OBSERVED PROPERTY": "Activity", "RESULT": "Non-toxic"}
{"MOLECULE": "O=C1NC(c2ccccc2)(C2CC2)C(=O)N1CN1CCc2ccccc2C1 (stereo not drawn)", "TEST TARGET": "Rattus norvegicus", "OBSERVED PROPERTY": "Activity", "RESULT": "Non-toxic"}
{"MOLECULE": "O=C1NC(c2ccccc2)(C2CC2)C(=O)N1CN1CCOCC1 (stereo not drawn)", "TEST TARGET": "Rattus norvegicus", "OBSERVED PROPERTY": "Activity", "RESULT": "Non-toxic"}
{"MOLECULE": "O=C1NC(c2ccccc2)(C2CC2)C(=O)N1CN1CCN(CCc2ccccc2)CC1 (stereo not drawn)", "TEST TARGET": "Rattus norvegicus", "OBSERVED PROPERTY": "Activity", "RESULT": "Non-toxic"}
{"MOLECULE": "O=C1NC(=O)C(c2ccccc2)(c2ccccc2)N1 [PHENYTOIN]", "TEST TARGET": "Rattus norvegicus", "OBSERVED PROPERTY": "Activity", "RESULT": "Non-toxic"}
{"MOLECULE": "O=C1NC(=O)C(c2ccccc2)(C2CC2)N1 (stereo not drawn)", "TEST TARGET": "Rattus norvegicus", "OBSERVED PROPERTY": "Activity", "RESULT": "Non-toxic"}

----------
- TEST SUMMARY: Lipophilicity, log P of compound
- Format: physicochemical
- ASSAY CONTEXT: octanol/water
Heads up, the class ranges for logP are lower segment = under 2, middle segment = from 2 up to 3, upper segment = 3 and over

{"COMPOUND": "O=C1NC(c2ccc(Cl)cc2)(C2CC2)C(=O)N1CN1CCN(CCc2ccccc2)CC1 (stereo unspecified)", "CAT": "upper segment"}
{"COMPOUND": "O=C1NC(c2ccccc2)(C2CC2)C(=O)N1CN1CCN(C/C=C/c2ccccc2)CC1 (stereo unspecified)", "CAT": "upper segment"}
{"COMPOUND": "O=C1NC(c2ccccc2)(C2CC2)C(=O)N1CN1CCOCC1 (stereo unspecified)", "CAT": "lower segment"}
{"COMPOUND": "O=C1NC(c2ccc(Cl)cc2)(C2CC2)C(=O)N1CN1CCc2ccccc2C1 (stereo unspecified)", "CAT": "upper segment"}
{"COMPOUND": "O=C(OCc1ccccc1)N1CCN(CN2C(=O)NC(c3ccc(Cl)cc3)(C3CC3)C2=O)CC1 (stereo unspecified)", "CAT": "upper segment"}
{"COMPOUND": "O=C1NC(=O)C(c2ccc(Cl)cc2)(C2CC2)N1 (stereo unspecified)", "CAT": "middle segment"}
{"COMPOUND": "CC(c1ccccc1)N1CCN(CN2C(=O)NC(c3ccc(Cl)cc3)(C3CC3)C2=O)CC1 (stereo unspecified)", "CAT": "upper segment"}
{"COMPOUND": "CCOC(=O)N1CCN(CN2C(=O)NC(c3ccccc3)(C3CC3)C2=O)CC1 (stereo unspecified)", "CAT": "lower segment"}
{"COMPOUND": "COCCN1CCN(CN2C(=O)NC(c3ccccc3)(C3CC3)C2=O)CC1 (stereo unspecified)", "CAT": "lower segment"}
{"COMPOUND": "CC(c1ccccc1)N1CCN(CN2C(=O)NC(c3ccccc3)(C3CC3)C2=O)CC1 (stereo unspecified)", "CAT": "upper segment"}
{"COMPOUND": "O=C(c1ccccc1)N1CCN(CN2C(=O)NC(c3ccccc3)(C3CC3)C2=O)CC1 (stereo unspecified)", "CAT": "middle segment"}
{"COMPOUND": "O=C1NC(=O)C(c2ccccc2)(C2CC2)N1 (stereo unspecified)", "CAT": "lower segment"}

----------
- TEST SUMMARY: Lipophilicity, log P of compound
- Assay type: physicochemical
- ASSAY CONTEXT: octanol/water
Each entry below lists one item and its recorded logP value.

{"MOLECULE": "O=C1NC(c2ccc(Cl)cc2)(C2CC2)C(=O)N1CN1CCOCC1 (centres undefined)", "logP": 2}
{"MOLECULE": "O=C1NC(c2ccccc2)(C2CC2)C(=O)N1CN1CCN(CCc2ccccc2)CC1 (centres undefined)", "logP": 2.98}
{"MOLECULE": "O=C(OCc1ccccc1)N1CCN(CN2C(=O)NC(c3ccccc3)(C3CC3)C2=O)CC1 (centres undefined)", "logP": 2.92}
{"MOLECULE": "O=C1NC(c2ccccc2)(C2CC2)C(=O)N1CN1CCc2ccccc2C1 (centres undefined)", "logP": 3.02}
